TARGET OR TEST SYSTEM: human ether-à-go-go-related gene (hERG) potassium channel (human);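 note: peak tail current of the secondary pulse compared with the same well before compound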
EXPERIMENT: primary screen, population patch clamp on CHO cells stably expressing hERG; higher = less effect of the substance
In all, about 310,000 compounds went through this assay and about 14,000 (4.5%) showed an effect of 50% or more. Effects have a minus sign here. This excerpt belongs to a sample that is enriched for strong results.
READOUT NAME: hERG current change (%, negative = inhibition) at 10uM (%)
Your answer should be a plain number; it is taken to be in %.

Worked cases, answers included:
{"COMPOUND": "CC(=O)N1CCOc2ccc(S(=O)(=O)N3CCC(C(=O)NCc4ccc(F)cc4)CC3)cc21", "READOUT NUMBER": 4.09}
{"COMPOUND": "O=C(COC(=O)c1ccc(O)cc1)Nc1ccc2[nH]c(=O)[nH]c2c1", "READOUT NUMBER": 2.48}
{"COMPOUND": "CN(C)CCCN(C(=O)c1cc(-c2cccs2)nc2ccccc12)c1nc2c(F)cccc2s1.Cl", "READOUT NUMBER": -48.8}
{"COMPOUND": "Cc1cccnc1NC(=O)Nc1ccccc1", "READOUT NUMBER": 1.64}
{"COMPOUND": "Cc1cccc2sc(N(CCCN(C)C)C(=O)c3ccc(Cl)s3)nc12.Cl", "READOUT NUMBER": -69.7}
{"COMPOUND": "O=S(=O)(Nc1ccc(Br)cc1)c1cccc(NC(=S)NCCN2CCOCC2)c1", "READOUT NUMBER": 3.16}
{"COMPOUND": "COc1ccc(Cc2nc3ccc(C(=O)NCCCSC)cc3o2)cc1OC", "READOUT NUMBER": 0.503}
{"COMPOUND": "COc1cc(CN2CCN(C3CCC3)CC2CCO)cc(OC)c1 (centres unmarked)", "READOUT NUMBER": 8.54}
{"COMPOUND": "Cc1ccc(C(=O)NCc2ccc3c(c2)OCO3)cc1S(=O)(=O)N1CCCCC1", "READOUT NUMBER": -26.4}
{"COMPOUND": "Br.O=C(CN1CCSC1=NCc1ccccc1)c1ccc(Cl)c(Cl)c1", "READOUT NUMBER": -17.7}

# input Indicate the recorded hERG current change (%, negative = inhibition) at 10uM value for this compound: CN(C)c1cc(-c2ccc(Br)cc2)oc(=O)c1Cl
# output 15.5

# input Indicate the recorded hERG current change (%, negative = inhibition) at 10uM value for this compound: CN(C)CCN(C(=O)c1ccc(C(=O)c2ccccc2)cc1)c1nc2cc3c(cc2s1)OCO3.Cl
# output 3.43

# input Indicate the recorded hERG current change (%, negative = inhibition) at 10uM value for this compound: CCc1cccc(C)c1NC(=O)CSc1nc2ccc(N3C(=O)c4ccccc4C3=O)cc2s1
# output 4.44

# input Indicate the recorded hERG current change (%, negative = inhibition) at 10uM value for this compound: Br.O=C(CN1CCSC1=NCc1ccccc1)c1ccc(Cl)cc1
# output -53.9

# input Indicate the recorded hERG current change (%, negative = inhibition) at 10uM value for this compound: COc1cc2ccccc2cc1C(=O)N(CCN(C)C)c1nc2c(F)cc(F)cc2s1.Cl
# output -10.1

# input Indicate the recorded hERG current change (%, negative = inhibition) at 10uM value for this compound: CN(C)CCCN(C(=O)c1ccc([N+](=O)[O-])o1)c1nc2cc3c(cc2s1)OCO3.Cl
# output -71.8

# input Indicate the recorded hERG current change (%, negative = inhibition) at 10uM value for this compound: Br.O=C(CN1CCSC1=NCc1ccccc1)c1ccccc1
# output -23.5

# input Indicate the recorded hERG current change (%, negative = inhibition) at 10uM value for this compound: CCOc1ccccc1CN1CCN(C2CCOCC2)CC1CCO (centres unmarked)
# output 9.47

====

TARGET OR TEST SYSTEM: human ether-à-go-go-related gene (hERG) potassium channel (human, UniProt Q12809);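 note: peak tail current of the secondary pulse compared with the same well before compound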
Sequence (Q12809 whole entry, looked up): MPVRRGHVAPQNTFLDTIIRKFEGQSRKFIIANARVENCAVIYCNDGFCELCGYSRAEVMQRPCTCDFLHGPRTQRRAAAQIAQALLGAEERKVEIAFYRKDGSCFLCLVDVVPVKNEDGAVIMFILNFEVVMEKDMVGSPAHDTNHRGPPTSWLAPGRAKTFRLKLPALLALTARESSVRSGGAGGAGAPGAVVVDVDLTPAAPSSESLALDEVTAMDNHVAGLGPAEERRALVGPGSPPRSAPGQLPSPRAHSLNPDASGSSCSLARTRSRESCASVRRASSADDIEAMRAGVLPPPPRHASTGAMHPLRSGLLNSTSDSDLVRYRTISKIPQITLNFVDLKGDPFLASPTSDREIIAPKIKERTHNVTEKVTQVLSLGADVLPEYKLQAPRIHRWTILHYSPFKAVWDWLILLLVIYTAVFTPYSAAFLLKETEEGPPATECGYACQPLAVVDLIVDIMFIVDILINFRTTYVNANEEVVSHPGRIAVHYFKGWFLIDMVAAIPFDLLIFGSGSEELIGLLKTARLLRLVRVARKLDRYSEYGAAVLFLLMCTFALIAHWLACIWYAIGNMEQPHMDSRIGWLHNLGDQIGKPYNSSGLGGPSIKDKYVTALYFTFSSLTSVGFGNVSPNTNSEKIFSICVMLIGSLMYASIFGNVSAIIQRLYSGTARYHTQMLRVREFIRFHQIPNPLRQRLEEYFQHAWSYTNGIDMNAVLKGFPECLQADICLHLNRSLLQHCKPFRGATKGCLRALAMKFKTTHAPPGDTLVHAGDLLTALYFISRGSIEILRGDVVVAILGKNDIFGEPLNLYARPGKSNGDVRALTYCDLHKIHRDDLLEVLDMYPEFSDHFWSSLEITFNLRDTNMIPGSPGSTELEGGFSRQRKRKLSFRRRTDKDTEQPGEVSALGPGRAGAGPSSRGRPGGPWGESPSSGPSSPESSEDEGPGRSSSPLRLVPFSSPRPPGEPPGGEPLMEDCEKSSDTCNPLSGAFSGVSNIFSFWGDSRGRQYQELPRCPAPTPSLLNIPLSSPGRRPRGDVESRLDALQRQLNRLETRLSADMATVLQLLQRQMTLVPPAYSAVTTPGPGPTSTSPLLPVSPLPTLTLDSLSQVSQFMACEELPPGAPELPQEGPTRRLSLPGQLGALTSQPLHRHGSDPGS
EXPERIMENT: primary screen, population patch clamp on CHO cells stably expressing hERG; higher = less effect of the substance
The campaign covered roughly 310,000 compounds. About 14,000 (4.5%) showed an effect of 50% or more. Effects have a minus sign here. The sample holds strong results, similar compounds and a random draw of the others, so the mix is not that of the screen.
READOUT NAME: hERG current change (%, negative = inhibition) at 10uM (%)
Your answer should be a plain number; it is taken to be in %.

{"COMPOUND": "Brc1ccc(-c2noc(-c3ccccn3)n2)o1", "TARGET OR TEST SYSTEM": "human ether-à-go-go-related gene (hERG) potassium channel (human, UniProt Q12809)", "READOUT NUMBER": 2.68}
{"COMPOUND": "Cc1ccc(SCC(=O)c2cc(C)c(O)c(C)c2)cc1", "TARGET OR TEST SYSTEM": "human ether-à-go-go-related gene (hERG) potassium channel (human, UniProt Q12809)", "READOUT NUMBER": -3.19}
{"COMPOUND": "Cc1cc(NC(=O)COC(=O)CSc2nc3cc(Cl)ccc3n2Cc2ccccc2)no1", "TARGET OR TEST SYSTEM": "human ether-à-go-go-related gene (hERG) potassium channel (human, UniProt Q12809)", "READOUT NUMBER": -19.9}

# input Indicate the recorded hERG current change (%, negative = inhibition) at 10uM value for this compound: COc1ccc(CCC(=O)Nc2ncc(C)s2)cc1OC
# output 16.2

====

TARGET OR TEST SYSTEM: human ether-à-go-go-related gene (hERG) potassium channel (human, UniProt Q12809);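 note: peak tail current of the secondary pulse compared with the same well before compound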
EXPERIMENT: primary screen, population patch clamp on CHO cells stably expressing hERG; higher = less effect of the substance
Out of some 310,000 compounds screened, about 14,000 (4.5%) showed an effect of 50% or more. Effects have a minus sign here. What follows is part of a selection rich in strong results, with near analogues and random picks from the rest.
hERG current change (%, negative = inhibition) at 10uM below -10% gives false; hERG current change (%, negative = inhibition) at 10uM at or above it gives true.

Use the examples below as a reference point.
{"COMPOUND": "CCCC[C@@H]1C[C@H]1[C@@H](NC(=O)c1cccs1)c1ccc(Cl)cc1", "DISCRETE LABEL": "true"}
{"COMPOUND": "CCN1CCN(C(=O)c2cc3c(s2)-c2c(C)cccc2OC3)CC1", "DISCRETE LABEL": "false"}
{"COMPOUND": "CC(C)N(C(=O)Cn1cnc2cc([N+](=O)[O-])ccc2c1=O)C(C)C", "DISCRETE LABEL": "true"}
{"COMPOUND": "CCOc1ccc(NS(=O)(=O)c2ccc(C(=O)NCCCN3CCCC3=O)cc2)cc1", "DISCRETE LABEL": "true"}
{"COMPOUND": "CCOC(=O)C1(CCOc2ccccc2)CCN(Cc2ccc(O)cc2)CC1", "DISCRETE LABEL": "false"}

# input Given CC(=O)N1CCN(c2ccc(NC(=O)c3ccc(N4CCCC4)c([N+](=O)[O-])c3)cc2Cl)CC1 , state whether its hERG current change (%, negative = inhibition) at 10uM is at least -10%.
# output false

# input Given CCOC(=O)C1C(=O)C=C(c2ccc(C)cc2)CC1c1ccco1 (stereo not drawn) , state whether its hERG current change (%, negative = inhibition) at 10uM is at least -10%.
# output true

# input Given Cc1ccc(-n2c(=O)[nH]cc(C(=O)Nc3ccc4c(c3)OCCO4)c2=O)cc1 , state whether its hERG current change (%, negative = inhibition) at 10uM is at least -10%.
# output true

# input Given COc1ccc(CNCc2ccc3c(c2)OCO3)cc1Br.O=C(O)C(=O)O , state whether its hERG current change (%, negative = inhibition) at 10uM is at least -10%.
# output false

# input Given COc1cc(Br)c(CNCCc2ccc3c(c2)OCO3)cc1OC , state whether its hERG current change (%, negative = inhibition) at 10uM is at least -10%.
# output false

====

TARGET OR TEST SYSTEM: human ether-à-go-go-related gene (hERG) potassium channel (human, UniProt Q12809);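 note: peak tail current of the secondary pulse compared with the same well before compound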
EXPERIMENT: primary screen, population patch clamp on CHO cells stably expressing hERG; higher = less effect of the substance
Out of some 310,000 compounds screened, about 14,000 (4.5%) showed an effect of 50% or more. The effect is printed as a negative number. Many of the other results were omitted from the sample, so strong results are more common in it than they were.
Catalogue of hERG current change (%, negative = inhibition) at 10uM readings, one per entry.
Your answer should be a plain number; it is taken to be in %.

Worked cases, answers included:
{"MOLECULE": "COc1ccc(C)c2sc(N(CCCN(C)C)C(=O)c3ccc(S(=O)(=O)N(C)C)cc3)nc12.Cl", "READOUT NUMBER": -61.5}
{"MOLECULE": "Cc1cc(C)c2nc(N(CCN(C)C)C(=O)/C=C/c3cccs3)sc2c1.Cl", "READOUT NUMBER": 17.9}
{"MOLECULE": "Cc1cc(C)c2nc(N(CCCN(C)C)C(=O)C3=COCCO3)sc2c1.Cl", "READOUT NUMBER": -65.9}
{"MOLECULE": "O=C(Nc1cccnc1)c1cc(-c2ccc(F)cc2)on1", "READOUT NUMBER": 10.9}
{"MOLECULE": "CCc1nnc(NS(=O)(=O)c2ccc(N3C(=O)C4CC=C(Cl)CC4C3=O)cc2)s1 (centres unmarked)", "READOUT NUMBER": 4.84}

# input Indicate the recorded hERG current change (%, negative = inhibition) at 10uM value for this molecule: Cc1ccc(S(=O)(=O)CC(=O)N(CCCN(C)C)c2nc3ccc(C)cc3s2)cc1.Cl
# output -43.9

# input Indicate the recorded hERG current change (%, negative = inhibition) at 10uM value for this molecule: COc1ccc(C)c2sc(N(CCCN(C)C)C(=O)CS(=O)(=O)c3ccc(F)cc3)nc12.Cl
# output -60.3

# input Indicate the recorded hERG current change (%, negative = inhibition) at 10uM value for this molecule: Cc1cc(C)c2nc(N(CCCN(C)C)C(=O)c3ccc(S(=O)(=O)N4CC(C)OC(C)C4)cc3)sc2c1.Cl (centres unmarked)
# output -33.7
